Provenance of the data: ChEMBL document CHEMBL5316337

test system: Pseudomonas aeruginosa; test: Antibacterial activity against polymyxin-susceptible Pseudomonas aeruginosa FADD1-PA038 clinical isolates assessed as reduction in bacterial growth by broth microdilution method; assay type: functional
Bridge positions count the residues as written; N and C are the ends. Square brackets hold non-standard residues; d marks the D form. Peptide text beside a SMILES is read from it. * marks the point of attachment. X1 = CC[C@H](C)CCCCC(=O)*; Dab = NCC[C@H](N)C(=O)O
measuredAttribute: MIC

compound	systemTested	MIC
CC[C@H](C)CCCCC(=O)N[C@@H](CCN)C(=O)N[C@H](C(=O)N[C@@H](CCN)C(=O)N[C@H]1CCNC(=O)[C@H](CCCNC(=N)N)NC(=O)[C@H](CCN)NC(=O)[C@H](CCN)NC(=O)[C@H](CC(C)C)NC(=O)[C@@H](Cc2ccccc2)NC(=O)[C@H](CCN)NC1=O)[C@@H](C)O	Pseudomonas aeruginosa	> 32 mg/L
CC[C@H](C)CCCCC(=O)N[C@@H](CCN)C(=O)N[C@H](C(=O)N[C@@H](CCN)C(=O)N[C@H]1CCNC(=O)[C@H](CC(C)C)NC(=O)[C@H](CCN)NC(=O)[C@H](CCN)NC(=O)[C@H](CC(C)C)NC(=O)[C@@H](Cc2ccccc2)NC(=O)[C@H](CCN)NC1=O)[C@@H](C)O (X1-[Dab]T[Dab][Dab][Dab][dF]L[Dab][Dab]L; lactam 4-C)	Pseudomonas aeruginosa	2 mg/L

Prompt: For CC[C@H](C)CCCCC(=O)N[C@@H](CCN)C(=O)N[C@H](C(=O)N[C@@H](CCN)C(=O)N[C@H]1CCNC(=O)[C@H](CC)NC(=O)[C@H](CCN)NC(=O)[C@H](CCN)NC(=O)[C@H](CC(C)C)NC(=O)[C@@H](Cc2ccccc2)NC(=O)[C@H](CCN)NC1=O)[C@@H](C)O , write its MIC.
Completion: 2 mg/L

Prompt: Return the recorded MIC value; entry: CC[C@H](C)CCCCC(=O)N[C@@H](CCN)C(=O)N[C@H](C(=O)N[C@@H](CCN)C(=O)N[C@H]1CCNC(=O)[C@H](Cc2ccccc2)NC(=O)[C@H](CCN)NC(=O)[C@H](CCN)NC(=O)[C@H](CC(C)C)NC(=O)[C@@H](Cc2ccccc2)NC(=O)[C@H](CCN)NC1=O)[C@@H](C)O
Completion: 4 mg/L

Prompt: Please report MIC for the following compound: CC[C@H](C)CCCCC(=O)N[C@@H](CCN)C(=O)N[C@H](C(=O)N[C@@H](CCN)C(=O)N[C@H]1CCNC(=O)[C@H](C(C)N=[N+]=[N-])NC(=O)[C@H](CCN)NC(=O)[C@H](CCN)NC(=O)[C@H](CC(C)C)NC(=O)[C@@H](Cc2ccccc2)NC(=O)[C@H](CCN)NC1=O)[C@@H](C)O (stereo partly drawn)
Completion: 4 mg/L

Prompt: Quickly give me recorded MIC for CC[C@H](C)CCCCC(=O)N[C@@H](CCN)C(=O)N[C@H](C(=O)N[C@@H](CCN)C(=O)N[C@H]1CCNC(=O)[C@H](CCCN)NC(=O)[C@H](CCN)NC(=O)[C@H](CCN)NC(=O)[C@H](CC(C)C)NC(=O)[C@@H](Cc2ccccc2)NC(=O)[C@H](CCN)NC1=O)[C@@H](C)O
Completion: > 32 mg/L

Prompt: Return MIC (reported value) for this compound: CC[C@H](C)CCCCC(=O)N[C@@H](CCN)C(=O)N[C@H](C(=O)N[C@@H](CCN)C(=O)N[C@H]1CCNC(=O)[C@H](Cc2ccc(O)cc2)NC(=O)[C@H](CCN)NC(=O)[C@H](CCN)NC(=O)[C@H](CC(C)C)NC(=O)[C@@H](Cc2ccccc2)NC(=O)[C@H](CCN)NC1=O)[C@@H](C)O
Completion: 8 mg/L

Prompt: // Input: CC[C@H](C)CCCCC(=O)N[C@@H](CCN)C(=O)N[C@H](C(=O)N[C@@H](CCN)C(=O)N[C@H]1CCNC(=O)[C@H]([C@@H](C)O)NC(=O)[C@H](CCN)NC(=O)[C@H](CCN)NC(=O)[C@H](CC(C)C)NC(=O)[C@@H](Cc2ccccc2)NC(=O)[C@H](CCN)NC1=O)[C@@H](C)O . Output its MIC only.
Completion: 4 mg/L

Prompt: Specify MIC for CCC[C@@H]1NC(=O)[C@H](CCN)NC(=O)[C@H](CCN)NC(=O)[C@H](CC(C)C)NC(=O)[C@@H](Cc2ccccc2)NC(=O)[C@H](CCN)NC(=O)[C@@H](NC(=O)[C@H](CCN)NC(=O)[C@@H](NC(=O)[C@H](CCN)NC(=O)CCCC[C@@H](C)CC)[C@@H](C)O)CCNC1=O and stop.
Completion: 2 mg/L

Prompt: Please report MIC for the following compound: CC[C@H](C)CCCCC(=O)N[C@@H](CCN)C(=O)N[C@H](C(=O)N[C@@H](CCN)C(=O)N[C@H]1CCNC(=O)[C@H](C(C)(C)O)NC(=O)[C@H](CCN)NC(=O)[C@H](CCN)NC(=O)[C@H](CC(C)C)NC(=O)[C@@H](Cc2ccccc2)NC(=O)[C@H](CCN)NC1=O)[C@@H](C)O
Completion: 8 mg/L

Prompt: Specify MIC for CC[C@H](C)CCCCC(=O)N[C@@H](CCN)C(=O)N[C@H](C(=O)N[C@@H](CCN)C(=O)N[C@H]1CCNC(=O)[C@H](CN)NC(=O)[C@H](CCN)NC(=O)[C@H](CCN)NC(=O)[C@H](CC(C)C)NC(=O)[C@@H](Cc2ccccc2)NC(=O)[C@H](CCN)NC1=O)[C@@H](C)O and stop.
Completion: 4 mg/L

Prompt: Name the recorded MIC of the item CC[C@H](C)CCCCC(=O)N[C@@H](CCN)C(=O)N[C@H](C(=O)N[C@@H](CCN)C(=O)N[C@H]1CCNC(=O)[C@H](CCO)NC(=O)[C@H](CCN)NC(=O)[C@H](CCN)NC(=O)[C@H](CC(C)C)NC(=O)[C@@H](Cc2ccccc2)NC(=O)[C@H](CCN)NC1=O)[C@@H](C)O in your answer.
Completion: 8 mg/L

Prompt: Provide measured MIC value, entry: CC[C@H](C)CCCCC(=O)N[C@@H](CCN)C(=O)N[C@H](C(=O)N[C@@H](CCN)C(=O)N[C@H]1CCNC(=O)[C@H](Cc2c[nH]c3ccccc23)NC(=O)[C@H](CCN)NC(=O)[C@H](CCN)NC(=O)[C@H](CC(C)C)NC(=O)[C@@H](Cc2ccccc2)NC(=O)[C@H](CCN)NC1=O)[C@@H](C)O
Completion: 4 mg/L
